Where do the numbers come from? From the METLIN SMRT retention time set (Domingo-Almenara et al. 2019).

assay: gradient 5% acetonitrile 3 min, to 50% in 2 min, to 85% in 15 min, held 3 min, 100 µL/min; settings: column: Zorbax Extend-C18 2.1 x 50 mm; eluents: water / acetonitrile, 0.1% formic acid
Assign class by RP-LC retention time: not lower than 900 s means y; lower than 900 s means n.

Molecule: Cc1nn(-c2nc(CC(=O)N3CCC(C)CC3)cs2)c(C)c1Cl
Qualitative label: y
//
Molecule: O=C1CCCc2cc(S(=O)(=O)N3CCC(C(=O)Nc4cccc(Cl)c4)CC3)ccc2N1
Qualitative label: n
//
Molecule: Cc1cc(-c2nnc(C3CC3)o2)c(C)n1CC(=O)NCc1ccc(F)c(Cl)c1
Qualitative label: n
//
Molecule: CCS(=O)(=O)NCC1CCN(C(=O)COc2ccccc2)CC1
Qualitative label: n
//
Molecule: CCOCCCNC(=O)C1CCCN(c2nnc(C)c3c(C)n(-c4ccc(C)cc4)nc23)C1 (centres undefined)
Qualitative label: n
//
Molecule: CCc1ccc(-c2nc(C3CC(=O)N(c4ccc(OC)cc4)C3)no2)cc1 (centres undefined)
Qualitative label: y
//
Molecule: O=C(CN1CCN(C(=O)Nc2ccc(Cl)cc2)CC1=O)NC1CC1
Qualitative label: n
//
Molecule: CSc1cccc(NC(=O)N2CCC3(CC2)NC(=O)c2ccccc2O3)c1
Qualitative label: n
//
Molecule: COc1ccc2c(c1)C1(CCN(C(=O)Cc3ccc(C)cc3)C1)C(=O)N2C (centres undefined)
Qualitative label: n

* * *

Recorded RP-LC retention time values for a group of compounds are listed next.
assay: gradient 5% acetonitrile 3 min, to 50% in 2 min, to 85% in 15 min, held 3 min, 100 µL/min; conditions: column: Zorbax Extend-C18 2.1 x 50 mm; eluents: water / acetonitrile, 0.1% formic acid

Compound: Cc1noc(C)c1S(=O)(=O)N1CCc2c(c(-c3nnc(-c4ccc(F)cc4)o3)nn2C)C1
RP-LC retention time: 910 s
//
Compound: Cn1c(-c2cccc(C(=O)NCc3ccc(F)cc3F)c2)nc2cccnc21
RP-LC retention time: 743 s
//
Compound: O=C(Cc1cccs1)Nc1ccc(Nc2ccc(-n3cccn3)nn2)cc1
RP-LC retention time: 708 s
//
Compound: O=C(Cc1cccc(Cl)c1)Nc1ccsc1-c1nnc(C2CC2)o1
RP-LC retention time: 1240 s
//
Compound: COC(=O)c1c(C)[nH]c(C(=O)N2CCCC(C(=O)NCc3ccc(OC)cc3OC)C2)c1C (stereo not given)
RP-LC retention time: 755 s
//
Compound: Cc1cc(C)n(CCN2CCN(C(=O)Cn3cnc4ccccc43)CC2)n1
RP-LC retention time: 512 s
//
Compound: CCC1(O)CCOC2(CCN(C(=O)CC3CCCC3)CC2)C1 (stereo not given)
RP-LC retention time: 748 s
//
Compound: Cc1ccsc1C(=O)N1CCCC2(CC1)CN(C)C(=O)O2 (stereo not given)
RP-LC retention time: 661 s
//
Compound: COc1ccc(Cl)cc1NC(=O)NCCc1ccc(N(C)C)cc1
RP-LC retention time: 637 s
//
Compound: COc1ccc(OC)c(CNC(=O)C2CCN(C(=O)C3Sc4ccccc4NC3=O)CC2)c1 (stereo not given)
RP-LC retention time: 743 s

* * *

Recorded RP-LC retention time values for a group of compounds are listed next.
assay: gradient 5% acetonitrile 3 min, to 50% in 2 min, to 85% in 15 min, held 3 min, 100 µL/min; settings: column: Zorbax Extend-C18 2.1 x 50 mm; eluents: water / acetonitrile, 0.1% formic acid
Measure: RP-LC retention time (s)

Compound: CCOC(=O)C1CCN(S(=O)(=O)c2ccc3c(c2)-c2oncc2CO3)CC1
Quantity unit: s
Measured result: 908
//
Compound: Cc1ccc2c(c1)N(CCCC(=O)N1CCN(Cc3cn(C)c4ccccc34)CC1)C(=O)CO2
Quantity unit: s
Measured result: 706
//
Compound: Cc1cc(C)n(Cc2ccc(C(=O)NCC3Cn4cccc4C(=O)N3C)o2)n1 (stereo not given)
Quantity unit: s
Measured result: 634
//
Compound: CCN(C(=O)C1CCCN(c2ncnc3c2nc2n3CCCCC2)C1)c1ccccc1 (stereo not given)
Quantity unit: s
Measured result: 838
//
Compound: CN(C)S(=O)(=O)NCc1nnnn1C1CCCCC1
Quantity unit: s
Measured result: 681
//
Compound: COCCOC1CCC12CCN(Cc1ccccc1C#N)CC2 (stereo not given)
Quantity unit: s
Measured result: 610
//
Compound: CCOc1ccc(Cc2nc(-c3ccc4c(c3)oc(=O)n4C)no2)cc1OCC
Quantity unit: s
Measured result: 976
//
Compound: CCNc1nc(C)cc(N2CCN(C(=O)Nc3ccc(CC)cc3)CC2)n1
Quantity unit: s
Measured result: 702
//
Compound: COc1ccc(OC)c(NC(=O)c2[nH]c3cc(C)sc3c2CN2CCOCC2)c1
Quantity unit: s
Measured result: 705
//
Compound: O=C(Nc1ccccc1F)N1CC(F)(F)C[C@H]1CN1CCCC1
Quantity unit: s
Measured result: 620
//
Compound: Cn1nc(-c2nc(Cc3ccccc3)no2)c2c1CCN(C(=O)C1CCOC1)C2 (stereo not given)
Quantity unit: s
Measured result: 777
//
Compound: C=CCc1c(C)c(C#N)c2nc3ccccc3n2c1NCCOCCO
Quantity unit: s
Measured result: 589
//
Compound: CCc1cccc(NC(=O)Cn2c(N3CCOCC3)nc(CC)cc2=O)c1
Quantity unit: s
Measured result: 791
//
Compound: O=C1CN(C(=O)Cc2ccc(OC(F)(F)F)cc2)C2(CCCC2)CN1
Quantity unit: s
Measured result: 790
//
Compound: Cc1c(Cl)cccc1S(=O)(=O)NCC1CCN(C(=O)c2cccn(C)c2=O)CC1
Quantity unit: s
Measured result: 654
//
Compound: CCCn1cnc2cc(CNC(=O)c3ccc(OC)c(OC)c3)ccc21
Quantity unit: s
Measured result: 606
//
Compound: CC(C)N1CCCn2cc(S(=O)(=O)Nc3cccc(OC(F)(F)F)c3)cc2C1=O
Quantity unit: s
Measured result: 881
//
Compound: Cc1ccn2cc(-c3ccc(NC(=O)c4cccc(I)c4)cc3)nc2n1
Quantity unit: s
Measured result: 734
//
Compound: CC(=O)N1CCC(c2nc(-c3ccc4c(c3)ncn4CCN3CCCC3)no2)CC1
Quantity unit: s
Measured result: 553
//
Compound: Cc1ccc(NS(=O)(=O)c2cc(-c3[nH]ncc3C(=O)N3CCCC3)oc2C)cc1
Quantity unit: s
Measured result: 715
